Where these numbers come from: ChEMBL document CHEMBL1131911

- System: MDCK
- METHOD DESCRIPTION: Anti-influenza virus activity was evaluated in Madin-Darby canine kidney (MDCK) cells against influenza B (Hong Kong/5/72)
- Assay type: functional
- MEASUREMENT PARAMETERS: Canis lupus familiaris
MEASURED ENDPOINT: MIC50

Task: Give the reported MIC50 for C1CCC(C2C3CC4CC(C3)CC2C4)NC1 (stereo unspecified) (system: MDCK).
Result: > 977 µM

Task: Give the reported MIC50 for CN1CCCCC1C1C2CC3CC(C2)CC1C3 (stereo unspecified) (system: MDCK).
Result: > 143 µM

Task: Give the reported MIC50 for CC(N)C12CC3CC(CC(C3)C1)C2 (stereo unspecified) [RIMANTADINE] (system: MDCK).
Result: > 93 µM

Task: Give the reported MIC50 for C1CCN(CC2CC2)C(C2C3CC4CC(C3)CC2C4)C1 (stereo unspecified) (system: MDCK).
Result: > 143 µM

Task: Give the reported MIC50 for CCN1CCCCC1C1C2CC3CC(C2)CC1C3 (stereo unspecified) (system: MDCK).
Result: > 28 µM

Task: Give the reported MIC50 for NC(=O)c1ncn([C@@H]2O[C@H](CO)[C@@H](O)[C@H]2O)n1 [RIBAVIRIN] (system: MDCK).
Result: 41 µM
